Biological target: T1, human BACE1 ECD
T1 construct: analyte of the Octet assay (200 nM) and enzyme of the first short substrate assay; also called human BACE1 extracellular domain
T1 sequence (single chain, as listed by the source limits assumed): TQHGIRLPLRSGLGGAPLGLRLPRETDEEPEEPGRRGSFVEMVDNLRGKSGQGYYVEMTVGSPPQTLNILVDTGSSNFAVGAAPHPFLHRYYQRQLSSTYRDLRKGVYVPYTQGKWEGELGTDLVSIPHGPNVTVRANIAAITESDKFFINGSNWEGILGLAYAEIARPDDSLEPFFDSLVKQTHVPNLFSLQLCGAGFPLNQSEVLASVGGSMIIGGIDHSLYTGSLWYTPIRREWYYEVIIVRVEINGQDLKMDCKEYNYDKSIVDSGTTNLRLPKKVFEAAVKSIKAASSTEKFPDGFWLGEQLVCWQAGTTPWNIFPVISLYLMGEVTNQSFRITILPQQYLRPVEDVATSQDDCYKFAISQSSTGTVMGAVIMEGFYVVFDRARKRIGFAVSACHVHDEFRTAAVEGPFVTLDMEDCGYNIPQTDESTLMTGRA
Assay: Octet, pH 5.0;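 further: antibodies captured on anti-human capture sensor tips, dissociation monitored in PBS with BSA buffer, kinetics fitted with a one-to-one binding model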
pKd: −log10 of the molar value.
Entries and their pKd

Record excerpt, results attached:
>  <BINDER>
6279 (antibody, V domains shown, anti-BACE1 IgG) VH: QVQLVQSGAEVKKPGSSVKVSCKASGGTFRGYAISWVRQAPGQGLEWMGNIIPGFGTANYAQKFQGRVTITADESTSTAYMELSSLRSEDTAVYYCARSGGTKYGMLDVWGQGTMVTVSS VL: EIVMTQSPATLSVSPGERATLSCRASQSVSSNLAWYQQKPGQAPRLLIYGASTRATGIPARFSGSGSGTEFTLTISSLQSEDFAVYYCQQLLLWPPRTFGGGTKVEIK

>  <RESULT_VALUE>
> 9.44

$$$$
>  <BINDER>
6290 (antibody, V domains shown, anti-BACE1 IgG) VH: QLQLQESGPGLVKPSETLSLTCTVSGGSISSSSYYWGWIRQPPGKGLEWIGMIYYSGSTWYNPSLKSRVTISVDTSKNQFSLKLSSVTAADTAVYYCARVGLGVSYFDLWGRGTLVTVSS VL: EIVLTQSPATLSLSPGERATLSCRASQSVSSYLAWYQQKPGQAPRLLIYDASKRATGIPARFSGSGSGTDFTLTISSLEPEDFAVYYCQQVYTWPPRTFGGGTKVEIK

>  <RESULT_VALUE>
> 9.64

$$$$
>  <BINDER>
6294 (antibody, V domains shown, anti-BACE1 IgG) VH: QLQLQESGPGLVKPSETLSLTCTVSGGSISSSSHYWGWIRQPPGKGLEWIGMIYYSGSTWYNPSLKSRVTISVDTSKNQFSLKLSSVTAADTAVYYCARVGHGVSYFDLWGRGTLVTVSS VL: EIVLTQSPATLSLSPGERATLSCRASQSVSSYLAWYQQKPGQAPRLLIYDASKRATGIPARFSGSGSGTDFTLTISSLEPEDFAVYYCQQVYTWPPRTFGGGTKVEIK

>  <RESULT_VALUE>
> 9.57

$$$$
>  <BINDER>
6298 (antibody, V domains shown, anti-BACE1 IgG) VH: QLQLQESGPGLVKPSETLSLTCTVSGGSISWSSYYWSWIRQPPGKGLEWIGNIYYSGSTYYNPSLKSRVTISVDTSKNQFSLKLSSVTAADTAVYYCARLGHGYNYFDLWGRGTLVTVSS VL: EIVLTQSPATLSLSPGERATLSCRASQSVSSYLAWFQQKPGQAPRLLIYDASNRATGIPARFSGSGSGTDFTLTISSLEPEDFAVYYCQQVYVWPPRTFGGGTKVEIK

>  <RESULT_VALUE>
9.49

$$$$

Pending binder:
Challenge: Data request, read-out pKd, for 6293 (antibody, V domains shown, anti-BACE1 IgG) VH: QLQLQESGPGLVKPSETLSLTCTVSGGSISSSSYYWGWIRQPPGKGLEWIGMIYYSGSTWYNPSLRSRVTISVDTSKNQFSLKLSSVTAADTAVYYCARVGHGVSYFDLWGRGTLVTVSS VL: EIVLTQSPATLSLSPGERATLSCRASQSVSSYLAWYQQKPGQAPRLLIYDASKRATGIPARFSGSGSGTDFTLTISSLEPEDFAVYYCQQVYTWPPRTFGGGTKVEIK
Response given: > 9.55

The measurements presented in this section are drawn from patent US20180057604A1.
